Target: RaTG13
Test: BLI with recombinant Fabs, drawn table of KD (µM)
pKd: −log10 of the molar value.
VALUE KIND: pKd

BINDER: Ab17 Fab (Fab, V domains shown) VH: EVQLQQSGPELVKPGASVKISCKASGYSFTDYYMNWVKQSPEKSLEWIGEINPNTGGTTYNQKFKAKATLTVDKSSSTAYMQLKSLTSEDSAVYYCARYYGNLYAMDYWGQGTSVTVSS VL: DILMTQSPSSMSVSLGDTVSITCHASQGISSNIGWLQQKPGKSFKGLIYHGTNLEDGVPSRFSGSGSGADYSLTISSLESEDFADYYCVQYVQFPYTLGGGTKLEIK
VALUE KIND: pKd
QUALIFIER SIGN: =
RESULT: 6.74
--
BINDER: Ab19 Fab (Fab, V domains shown) VH: QVQLQQSGAELARPGASVKLSCKASGYPFTSYGINWVKQRTGQGLEWIGEIYPRIGNTYYNEKFKGKATLTADKSSSTAYMEFRSLTSEDSAVYFCARSWNSNYGEYYFDYWGQGTTLTVS VL: DIVMTQSHKFMSTSIGDRVSITCKASHDVSTAVAWYQQKPGQSPKLLIYWASTRHTGVPDRFTGSGSGTDYTLTIRSVQAEDLALYYCQQHYSTPYTFGGGTKLEIK
VALUE KIND: pKd
QUALIFIER SIGN: <
RESULT: 4.00
--
BINDER: Ab15 Fab (Fab, V domains shown) VH: EVQLQQSGPELVKPGASVKISCKASGYSFTGYYMNWVKQSPEKSLEWIGEINPNFGGTTYNQKFKAKATLTVDKSSSTAYMQLKSLTSEDSAVYYCARYYGNLYAMDYWGQGTSVTVS VL: DILMTQSPSSMSVSLGDTVSITCHASQGISSNIGWLQQKPGKSFKGLIYHGTNLEDGVPSRFSGSGSGAAYSLTISSLESEDFADYYCVQYTHFPYTFGGGTKLEIK
VALUE KIND: pKd
QUALIFIER SIGN: =
RESULT: 5.92
--
BINDER: Ab20 Fab (Fab, V domains shown) VH: EVQLQQSGPELVKPGASVKISCKASGFSFTGYSMNWMKQSPEKSLEWIGEINPTTGGTTYNQKFKAKATLTVDKSSSTAYIQLKSLTSEDSAVYYCARGRADYWGQGTTLTVSS VL: DIVLTQSPASLAVSLGQRATISCRASESVEYYGTGLVQWFQQKPGQPPKLLIYAASNVESGVPARFSGSGSGTDFSLNIHSVEEDDIAMYFCHQSRKLPWTFGGGTKLEIK
VALUE KIND: pKd
QUALIFIER SIGN: <
RESULT: 4.00

Just for reference, patent US20250032605A1 is where these values come from.
